System: cancer cell lines with wild-type p53 / mutated or deleted p53 (ATCC)
Assay: Cell growth assay (WST-8), other cancer cell lines
Assay type: cell-based
Settings: Homo sapiens, PC-3, Table 19A; PC-3 cells, deleted p53, cell growth; read-out: PC-3 (deleted p53) IC50
Could you mark each record Y if its IC50 falls strictly under 4 µM, and N if it equals or exceeds it?

Exam item: Dear colleague, could you confirm whether IC50 of CC(C)(C)C[C@H]1N[C@@H](C(=O)NCCCN2CCN(C3CC3)CC2)[C@H](c2cccc(Cl)c2F)[C@@]12C(=O)Nc1cc(Cl)ccc12 falls below 4 µM? Thanks.
Marked response: N

Exam item: Dear colleague, could you confirm whether IC50 of CN1CCN(CCNC(=O)[C@@H]2N[C@H](CC(C)(C)C)[C@]3(C(=O)Nc4cc(Cl)c(F)cc43)[C@H]2c2cccc(Cl)c2)CC1 falls below 4 µM? Thanks.
Marked response: N

Exam item: Dear colleague, could you confirm whether IC50 of CC(C)(C)C[C@H]1N[C@@H](C(=O)NC2CCC(OC(=O)C(C)(C)N)CC2)[C@H](c2cccc(Cl)c2F)[C@@]12C(=O)Nc1cc(Cl)ccc12 (stereo partly drawn) falls below 4 µM? Thanks.
Marked response: Y

Exam item: Dear colleague, could you confirm whether IC50 of CC(C)(C)C[C@H]1N[C@@H](C(=O)NCCC(=O)CO)[C@H](c2cccc(Cl)c2)[C@@]12C(=O)Nc1cc(Cl)c(F)cc12 falls below 4 µM? Thanks.
Marked response: N

Exam item: Dear colleague, could you confirm whether IC50 of CCCCNC(=O)N1CC(NC(=O)[C@@H]2N[C@H](CC(C)(C)C)[C@]3(C(=O)Nc4cc(Cl)ccc43)[C@H]2c2cccc(Cl)c2F)C1 falls below 4 µM? Thanks.
Marked response: N

Exam item: Dear colleague, could you confirm whether IC50 of CC(C)(C)C[C@H]1N[C@@H](C(=O)NCC2CC(O)C(O)C2)[C@H](c2cccc(Cl)c2)[C@@]12C(=O)Nc1cc(Cl)c(F)cc12 (stereo partly drawn) falls below 4 µM? Thanks.
Marked response: N

Exam item: Dear colleague, could you confirm whether IC50 of CC(C)(C)C[C@H]1N[C@@H](C(=O)NCC[C@H]2CC[C@H](N)C2)[C@H](c2cccc(Cl)c2F)[C@@]12C(=O)Nc1cc(Cl)c(F)cc12 falls below 4 µM? Thanks.
Marked response: Y

Exam item: Dear colleague, could you confirm whether IC50 of CC(C)(C)C[C@H]1N[C@@H](C(=O)NCCNS(C)(=O)=O)[C@H](c2cccc(Cl)c2F)[C@@]12C(=O)Nc1cc(Cl)c(F)cc12 falls below 4 µM? Thanks.
Marked response: N

Exam item: Dear colleague, could you confirm whether IC50 of CC(C)(C)C[C@H]1N[C@@H](C(=O)NCC[C@H](O)CNC(C)(C)C)[C@H](c2cccc(Cl)c2)[C@@]12C(=O)Nc1cc(Cl)c(F)cc12 falls below 4 µM? Thanks.
Marked response: Y

Exam item: Dear colleague, could you confirm whether IC50 of CC(C)(C)C[C@H]1N[C@@H](C(=O)NC2CN(CC(C)(C)O)C2)[C@H](c2cccc(Cl)c2F)[C@@]12C(=O)Nc1cc(Cl)ccc12 falls below 4 µM? Thanks.
Marked response: N

###

Test system: cancer cell lines with wild-type p53 / mutated or deleted p53 (ATCC)
Experiment: Cell growth assay (WST-8), other cancer cell lines
Format: cell-based
Conditions: Homo sapiens, PC-3, Table 19A; PC-3 cells, deleted p53, cell growth; read-out: PC-3 (deleted p53) IC50
Could you please report measured IC50 for the items listed next?

Exam item: Please give the measured IC50 for this compound: CC(=O)N1CC(NC(=O)[C@@H]2N[C@H](CC(C)(C)C)[C@]3(C(=O)Nc4cc(Cl)ccc43)[C@H]2c2cccc(Cl)c2F)C1
Marked response: > 30 µM

Exam item: Please give the measured IC50 for this compound: O=C(NC1CCC(O)CC1)[C@@H]1N[C@H](CC2CCCC2)[C@]2(C(=O)Nc3cc(Cl)ccc32)[C@H]1c1cccc(Cl)c1F (stereo partly drawn)
Marked response: > 10 µM

Exam item: Please give the measured IC50 for this compound: CC(C)(C)C[C@H]1N[C@@H](C(=O)N[C@H]2C[C@@](C)(O)C2)[C@H](c2cccc(Cl)c2)[C@@]12C(=O)Nc1cc(F)c(F)cc12
Marked response: > 10 µM

meta.source: patent US9079913B2
